- Experiment Notes: yeast display, Sf9 membrane polyspecificity reagent, FACS + sequencing; frameworks hold sequencing errors
Measurement Kind: polyreactivity (PSR sort gate)

Known polyreactivity (PSR sort gate) results, listed for orientation:
QVQLVESGGGLVQAGGSLRLSCAASGFTFGYYTMGWYRQAPGKERELVAAISSSGGRTYYADSVKGRFTISRDNAKNTVYLQMNSLKPEDTAVYYCAARARWAGLRYTRYYYWGQGTQVTVSS :: high polyreactivity
QVQLVESGGGLVQAGGSLRLSCAASGITFSYNAMGWDRQAPGKERELVAAISSNSDSTYYADSVKGRFTISRDNAKNTVYLQMNSLKPEDTAVYYCAADTPDAPDYSGFYYWGQGTQVTVSS :: low polyreactivity
QVQLVESGGGLVQAGGSLRLSCAASGFIIADYTMGWYRQAPGKERELVAAITRSGDSTYYADSVKGRFTISRDNAKNTVYLQMNSLKPEDTAVYYCNAVNDWYYAYYGVTSFRSYDYWGQGTQVTVSS :: low polyreactivity
QVQLVESGGGLVQAGGSLRLSCAASGRIFTRNAMGWYRQAPGKERELVATISAGGGRTSYADSVKGRFTISRDNAKNTVYLQMNSLKPEDTAVYYCAARGQVGYYWGQGTQVTVSS :: high polyreactivity

The record that follows has no polyreactivity (PSR sort gate) shown yet.
Ask: Please give the measured polyreactivity (PSR sort gate) for this sequence: QVQLVESGGGLVQAGGSLRLSCAASGSIFSRYAMGWYRQAPGKERELVADITTRGGRTYYADSVKGRFTISRDNAKNTVYLQMNSLKPEDTAVYYCATLHSYRYRGGGDYWGQGTQVTVSS
Result: high polyreactivity
